Molecular target: T1, human BTN2A1 CFP(Nter)-fusion protein expressed on 293F BTN3/BTN2 KO cells (human, UniProt Q7KYR7 29-527)
T1 construct: also called pcDNA3-Zeo-BTN2A1-CFP; not shown: CFP fused at the N-terminus (CFP(Nter)-fusion)
T1 sequence: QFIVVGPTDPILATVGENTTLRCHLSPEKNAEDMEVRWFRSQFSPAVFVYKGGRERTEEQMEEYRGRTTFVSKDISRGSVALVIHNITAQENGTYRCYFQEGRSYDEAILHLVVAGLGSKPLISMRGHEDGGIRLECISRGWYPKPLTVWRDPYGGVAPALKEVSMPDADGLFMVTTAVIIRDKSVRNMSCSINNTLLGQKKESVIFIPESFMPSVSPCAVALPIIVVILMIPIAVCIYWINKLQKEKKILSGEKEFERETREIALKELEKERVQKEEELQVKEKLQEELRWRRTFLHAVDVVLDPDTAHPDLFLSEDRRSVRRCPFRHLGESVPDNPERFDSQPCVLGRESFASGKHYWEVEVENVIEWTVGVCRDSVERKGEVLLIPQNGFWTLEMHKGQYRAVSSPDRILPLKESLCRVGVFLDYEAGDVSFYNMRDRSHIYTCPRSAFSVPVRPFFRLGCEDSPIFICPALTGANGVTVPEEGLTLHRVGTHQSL
Assay: flow cytometry (PE MFI in CFP-positive cells) on 293F BTN3/BTN2 KO cells transfected with BTN2A1-CFP
experimental-readout: EC50

binder | EC50
mAb5 (mouse anti-human BTN2 mAb 8.15) (antibody, V domains shown, Mouse IgG1 purified from hybridoma supernatant; also called CNCM I-5235) VH: EVKLLESGGGLVQPGGSLKLSCAASGFDFSGYWMTWVRQAPGKGLEWIGEINPDSSTINYTPSLRDKFIISRDNAKNTLYLQMSKVRSEDTALYFCARGSYYPSYWGQGTLVTVSA VL: DIVLTQSPASLAVSLGQRATISCRASKSVSSSGYSYMNWYQQKPGQPPKLLIYLASNLESGVPARFSGSGSGTDFTLNIHPVEDEDAATYYCQHSRELPHTFGGGTKLEIK | 0.08 µg/mL
mAb6 (mouse anti-human BTN2 mAb 8.16) (antibody, V domains shown, Mouse IgG1 purified from hybridoma supernatant; also called CNCM I-5236) VH: EVKLLESGGGLVQPGGSLKLSCAASGFDFSGYWMTWVRQAPGKGLEWIGEINPDSSTINYTPSLRDKFIISRDNAKNTLYLQMSKVRSEDTALYFCARGSYYPSYWGQGTLVTVSA VL: DIVLTQSPASLAVSLGQRATISCRASKSVSSSGYSYMNWYQQKPGQPPKLLIYLASNLESGVPARFSGSGSGTDFTLNIHPVEDEDAATYYCQHSRELPHTFGGGTKLEIK | 0.08 µg/mL
mAb1 (mouse anti-human BTN2 mAb 4.15) (antibody, V domains shown, Mouse IgG1 purified from hybridoma supernatant; also called CNCM I-5231) VH: QVQLQQSGAELVKPGASVKLSCKASGYIFTSYDINWVRQRPEQGLEWIGWIFPGDDSIIQNEKFKGKATLTTDKSSSTVYMQLSRLTSEDSAVYFCARLGPLRGFTYWGQGTLVTVSA VL: DIVLTQSPASLAVSLGQRATISCRASESVDRYGSSFMHWYQQKPGQPPKLLIYRASNLESGIPARFSGSGSRTDFTLTINPVEADDVATYYCQQSNEDPWTFGGGTKLEIK | 0.06 µg/mL

Let us move to another entry and its EC50.
Input line: Any idea what its EC50 is? The binder is mAb2 (mouse anti-human BTN2 mAb 5.28) (antibody, V domains shown, Mouse IgG1 purified from hybridoma supernatant; also called CNCM I-5232) VH: QIQLVQSGPELKKPGETVKISCKASGYTFTDYSMNWVKQAPGKGLKWVGRINTETGEPTYADDFKGRFAFSLETSASTAYLQIKNLKNEDTATYFCVRDYAKRWGQGTSVTVSS VL: DIVMTQSHKFMSTSVGDRVSITCKASQDVITAVAWYQQKPGQSPKLLIYSTSYRYTGVPDRFTGSGSGTDFTFTISSVQAEDLAVYYCLQHYTTPWTFGGGTKLEIK
Output line: 0.04 µg/mL
